Here the recorded growth is given for each entry.
# System: UACC-257 melanoma
# MEASUREMENT PROTOCOL: NCI-60 one-dose screen, 48 h (100 = growth as untreated, 0 = no growth, -100 = all killed)
# DETAILS: 10 µM unless noted
Compounds without any hit were thinned out: in the full panel of roughly 83,000, 20% have a hit.
Report the figure in % without appending any unit label.

Some solved entries appear below for comparison.
>>> value_reported("Cn1cc(-c2cc3ncnc(Nc4ccc(NC(=O)Nc5cc(C(C)(C)C)on5)cc4)c3s2)cn1")
25.3
>>> value_reported("CCc1cc2c(cc1Cl)nc1c(=O)[nH]c(=O)nc-1n2CCOCC(C)(C)C")
73.3
>>> value_reported("CN1CCN(c2ccc(Nc3nc(NCCNS(=O)(=O)c4ccccc4)c4sccc4n3)cc2)CC1")
114
>>> value_reported("Cc1ccccc1N1CCN(C2=C(Cl)C(=O)c3ncccc3C2=O)CC1")
21.7

Consider the record given below.
# lookup: growth of NCCNC(=O)c1cccc(COc2ccccc2NC(=O)c2cc(Cl)c(Cl)[nH]2)c1
98.9

====

# System: HT29 colon
# MEASUREMENT PROTOCOL: NCI-60 one-dose screen, 48 h (100 = growth as untreated, 0 = no growth, -100 = all killed)
# DETAILS: 10 µM unless noted
The panel holds about 83,000 compounds, 20% with a hit somewhere; the sample as a whole holds those more often.
Here the recorded growth is given for each entry.
Report the figure in % without appending any unit label.

Some solved entries appear below for comparison.
>>> value_reported("C=C(C)[C@@H]1CC[C@]2(C(=O)NC3CCCCC3)CC[C@]3(C)[C@H](CC[C@@H]4[C@@]5(C)CC[C@H](N)C(C)(C)[C@@H]5CC[C@]43C)[C@@H]12")
71.8
>>> value_reported("C#C[C@]1(O)CC[C@H]2[C@@H]3CC=C4c5sc(N6CCN(C)CC6)nc5CC[C@]4(C)[C@H]3CC[C@@]21C")
5.26
>>> value_reported("CCn1c2ccc(/C=N/N(C)S(=O)(=O)CCN(C)C)cc2c2cc(/C=N/N(C)S(=O)(=O)CCN(C)C)ccc21")
44.8
>>> value_reported("CC(=O)c1c([Si](C)(C)C)c2cc(C#N)ccn2c1C(=O)c1ccc(Br)cc1")
67.8

# lookup: growth of Cc1[nH]c(C(=O)Nc2ccc(C(=O)NCC3CCNCC3)cc2OC(C)C)c(Cl)c1Cl
40.6

# lookup: growth of O=C1Nc2ccc(F)cc2/C1=C\C(=O)c1ccc(NS(=O)(=O)c2ccccc2)cc1
81

# lookup: growth of CCOC(=O)c1c(NC(=O)c2ccc(C(F)(F)F)cc2)sc2c3c(ccc12)OCN(C)C3
-81

# lookup: growth of COc1ccc(Cn2cc(C#N)c(N)c2C(C)=O)cc1
112

====

# Test system: A498 renal
# MEASUREMENT PROTOCOL: NCI-60 one-dose screen, 48 h (100 = growth as untreated, 0 = no growth, -100 = all killed)
# DETAILS: 10 µM unless noted
Compounds without any hit were thinned out: in the full panel of roughly 83,000, 20% have a hit.
READOUT TYPE: growth (%)
Report the figure in % without appending any unit label.

Some solved entries appear below for comparison.
>>> value_reported("O=C(CCCCCCN1CC(=O)N2[C@@H](C3CC3)c3[nH]c4ccccc4c3C[C@H]2C1=O)NO")
98.8
>>> value_reported("O=C(N/N=C/c1cc2ccccc2nc1Cl)c1cc(-c2nc3ccccc3[nH]2)nc2ccccc12")
54.6
>>> value_reported("Cc1ccc2c(n1)C(=O)C(Cl)=C(Nc1ccc(C(C)C)cc1)C2=O")
133
>>> value_reported("O=C1c2ccccc2C23C(=C(c4cncnc4)c4ccccc42)CCCN13 (stereo not given)")
96.4

Consider the record given below.
Notebook: pull reported growth for A498 renal, entry COC(=O)c1cccc(NC2=C(Cl)C(=O)C(C)=C(C)C2=O)c1
87.7
